Give DC50 for every item shown.
# target or system: EGFR in Baf3-19del-T790M-C797S (Homo sapiens, UniProt P00533, C797S/DEL746-750/T790M)
# Sequence (P00533 with tags, fused parts or gaps DEL746-750/T790M/C797S): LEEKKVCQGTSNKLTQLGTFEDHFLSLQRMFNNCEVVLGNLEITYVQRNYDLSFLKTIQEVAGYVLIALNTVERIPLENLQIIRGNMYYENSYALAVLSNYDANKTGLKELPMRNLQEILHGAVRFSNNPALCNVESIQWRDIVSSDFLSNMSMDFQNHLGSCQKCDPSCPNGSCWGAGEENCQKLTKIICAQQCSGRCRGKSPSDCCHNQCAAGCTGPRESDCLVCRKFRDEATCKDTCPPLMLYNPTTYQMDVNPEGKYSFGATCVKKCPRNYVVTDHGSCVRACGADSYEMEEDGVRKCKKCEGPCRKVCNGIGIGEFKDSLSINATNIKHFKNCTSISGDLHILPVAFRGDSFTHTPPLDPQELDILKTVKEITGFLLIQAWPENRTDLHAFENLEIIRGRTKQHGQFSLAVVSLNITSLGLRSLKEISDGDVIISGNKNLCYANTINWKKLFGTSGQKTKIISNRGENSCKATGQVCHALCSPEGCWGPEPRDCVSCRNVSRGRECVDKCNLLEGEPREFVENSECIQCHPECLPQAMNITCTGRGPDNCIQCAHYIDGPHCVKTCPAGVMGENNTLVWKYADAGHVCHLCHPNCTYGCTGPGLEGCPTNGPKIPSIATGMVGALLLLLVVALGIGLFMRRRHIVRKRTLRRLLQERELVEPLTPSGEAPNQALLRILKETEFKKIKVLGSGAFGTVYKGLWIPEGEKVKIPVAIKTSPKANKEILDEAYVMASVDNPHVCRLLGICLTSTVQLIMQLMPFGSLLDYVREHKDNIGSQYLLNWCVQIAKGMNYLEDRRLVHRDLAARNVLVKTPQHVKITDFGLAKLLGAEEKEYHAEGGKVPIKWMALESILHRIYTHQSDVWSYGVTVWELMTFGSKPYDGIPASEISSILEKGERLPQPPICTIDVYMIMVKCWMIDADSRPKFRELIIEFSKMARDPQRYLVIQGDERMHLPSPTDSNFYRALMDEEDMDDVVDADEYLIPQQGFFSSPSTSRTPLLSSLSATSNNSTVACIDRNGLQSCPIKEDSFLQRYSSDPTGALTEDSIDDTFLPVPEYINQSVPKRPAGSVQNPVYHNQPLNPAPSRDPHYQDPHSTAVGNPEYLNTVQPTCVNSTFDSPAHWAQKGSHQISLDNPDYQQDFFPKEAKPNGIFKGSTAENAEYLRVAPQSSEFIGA
# assay name: EGFR PROTAC HTRF experiment (total EGFR degradation)
# Type: cell-based
# setup conditions: Baf3-DTC, incubated 16 hours, HTRF total EGFR; read-out: Baf3-DTC DC50

For every listed record, write down its DC50.
1. CCc1cc(Nc2ncc(Cl)c(Nc3ccc(Cl)cc3C(C)(C)O)n2)c(OC)cc1N1CCN(C(=O)CN2CCC(c3cc4c(cc3F)c(N3CCC(=O)NC3=O)nn4C)C(F)(F)C2)CC1 (stereo not drawn)
2. CCc1cc(Nc2ncc(Br)c(Nc3ccccc3P3(=O)CCCC3)n2)c(OC)cc1N1CC2(CCN(C(=O)CN3CCC(c4cc5c(cc4F)c(N4CCC(=O)NC4=O)nn5C)C(F)(F)C3)CC2(F)F)C1 (stereo not drawn)
3. CCc1cc(Nc2ncc(Cl)c(Nc3ccccc3P(C)(C)=O)n2)c(OC)cc1N1CCN(C(=O)CN2CCC(c3cc4c(cc3F)c(N3CCC(=O)NC3=O)nn4C)CC2)CC1

1: 100 to 1000 nM; 2: < 10 nM; 3: 10 to 100 nM

###

# target or system: EGFR in Baf3-19del-T790M-C797S (Homo sapiens, UniProt P00533, C797S/DEL746-750/T790M)
# assay name: EGFR PROTAC HTRF experiment (total EGFR degradation)
# Format: cell-based
# setup conditions: Baf3-DTC, incubated 16 hours, HTRF total EGFR; read-out: Baf3-DTC Dmax
Kindly state Dmax for each of the entries shown.

Worked cases, answers included:
[
  {
    "compound": "CCc1cc(Nc2ncc(Cl)c(Nc3ccccc3P(C)(C)=O)n2)c(OC)cc1N1CCN(C(=O)CN2CCC(c3cc4c(cc3F)c(N3CCC(=O)NC3=O)nn4C)C(F)(F)C2)[C@@H](C)C1 (some centres unmarked) [TA-025]",
    "target or system": "EGFR in Baf3-19del-T790M-C797S (Homo sapiens, UniProt P00533, C797S/DEL746-750/T790M)",
    "Dmax": "70 to 100%"
  },
  {
    "compound": "CCc1cc(Nc2ncc(Cl)c(Nc3ccccc3P(C)(C)=O)n2)c(OC)cc1N1CCN(C(=O)CN2CCC(c3cc4c(cc3F)c(N3CCC(=O)NC3=O)nn4C)CC2)CC1 [TC-213]",
    "target or system": "EGFR in Baf3-19del-T790M-C797S (Homo sapiens, UniProt P00533, C797S/DEL746-750/T790M)",
    "Dmax": "70 to 100%"
  },
  {
    "compound": "CCc1cc(Nc2ncc(Br)c(Nc3ccccc3P3(=O)CCCC3)n2)c(OC)cc1N1CC2(CCN(C(=O)CN3CCC(c4cc5c(cc4F)c(N4CCC(=O)NC4=O)nn5C)C(F)(F)C3)CC2(F)F)C1 (centres unmarked) [TB-010]",
    "target or system": "EGFR in Baf3-19del-T790M-C797S (Homo sapiens, UniProt P00533, C797S/DEL746-750/T790M)",
    "Dmax": "70 to 100%"
  },
  {
    "compound": "COc1cc(N2CCC(CN3CCN(c4ccc5c(c4)C(=O)N(C4CCC(=O)NC4=O)C5=O)CC3)CC2)c(-c2cnn(C)c2)cc1Nc1ncc(Br)c(Nc2ccc(C3CC3)cc2P(C)(C)=O)n1 (centres unmarked) [DZL-1, reference compound]",
    "target or system": "EGFR in Baf3-19del-T790M-C797S (Homo sapiens, UniProt P00533, C797S/DEL746-750/T790M)",
    "Dmax": "70 to 100%"
  }
]

Now consider the entry below.
Which Dmax reading was recorded for the compound CCc1cc(Nc2ncc(Cl)c(Nc3ccccc3C(=O)NC)n2)c(OC)cc1N1CCN(CCN2CCC(c3cc4c(cc3F)c(N3CCC(=O)NC3=O)nn4C)CC2)CC1 [TD-001] ? 50 to 70%

###

# assay name: Pharmacokinetic test of CD-1 mice
# Assay type: in vivo
# setup conditions: mouse; male CD-1 mice, single oral gavage (PO), plasma
# Method: Plasma was collected from male CD-1 mice after a single gavage administration of the test substance. The plasma was then analyzed to calculate pharmacokinetic parameters. The solvent is 5% DMSO + 10% Solutol HS-15 + 85% Saline. […] Before administration, checked the state of the administration formulation and ensured its homogeneity by vortexing, stirring or shaking. Calculated the theoretical administration volume for each CD-1 mouse in each group according to the following formula. […]
quantity kind: Cmax (ng/mL)
Give bare numbers, in ng/mL.

[
  {
    "compound": "CCc1cc(Nc2ncc(Cl)c(Nc3ccccc3C(=O)NC)n2)c(OC)cc1N1CCN(C(=O)CN2CCC(c3cc4c(cc3F)c(N3CCC(=O)NC3=O)nn4C)C(F)(F)C2)CC1 (stereo not shown) [TA-003]",
    "unit abbrev": "ng/mL",
    "Cmax": 3410
  },
  {
    "compound": "CCc1cc(Nc2ncc(Cl)c(Nc3ccccc3C(=O)NC)n2)c(OC)cc1N1CCN(C(=O)CN2CCC(c3ccc4c(N5CCC(=O)NC5=O)nn(C)c4c3)C(F)(F)C2)CC1 (stereo not shown) [Comparative Example 1-1, reference compound]",
    "unit abbrev": "ng/mL",
    "Cmax": 1740
  },
  {
    "compound": "CCc1cc(Nc2ncc(Br)c(Nc3ccccc3C(=O)NC)n2)c(OC)cc1N1CCN(C(=O)CN2CCC(c3cc4c(cc3F)c(N3CCC(=O)NC3=O)nn4C)C(F)(F)C2)CC1 (stereo not shown) [TA-004]",
    "unit abbrev": "ng/mL",
    "Cmax": 3170
  }
]

Using the record for CCc1cc(Nc2ncc(Cl)c(Nc3ccccc3P(C)(C)=O)n2)c(OC)cc1N1CCN(C(=O)CN2CCC(c3cc4c(cc3F)c(N3CCC(=O)NC3=O)nn4C)C(F)(F)C2)CC1 (stereo not shown) [TA-005] , report its Cmax. 5970

###

# assay name: Pharmacokinetic tests in male SD rats
# Format: in vivo
# setup conditions: rat, oral gavage (po), 10 mg/kg, plasma
quantity kind: Cmax (ng/mL)
Give bare numbers, in ng/mL.

[
  {
    "compound": "COc1cc(N2CCC(CN3CCN(c4ccc5c(c4)C(=O)N(C4CCC(=O)NC4=O)C5=O)CC3)CC2)c(-c2cnn(C)c2)cc1Nc1ncc(Br)c(Nc2ccc(C3CC3)cc2P(C)(C)=O)n1 (stereo not drawn) [DZL-1, reference compound]",
    "Cmax / ng/mL": 699
  },
  {
    "compound": "CCc1cc(Nc2ncc(Cl)c(Nc3ccccc3P(C)(C)=O)n2)c(OC)cc1N1CC2(CCN(C(=O)CN3CCC(c4cc5c(cc4F)c(N4CCC(=O)NC4=O)nn5C)C(F)(F)C3)CC2)C1 (stereo not drawn)",
    "Cmax / ng/mL": 580
  },
  {
    "compound": "CCc1cc(Nc2ncc(Cl)c(Nc3ccccc3P(C)(C)=O)n2)c(OC)cc1N1CCN(C(=O)CN2CCC(c3cc4c(cc3F)c(N3CCC(=O)NC3=O)nn4C)C(F)(F)C2)CC1 (stereo not drawn)",
    "Cmax / ng/mL": 768
  },
  {
    "compound": "CCc1cc(Nc2ncc(Cl)c(Nc3ccccc3P(C)(C)=O)n2)c(OC)cc1N1CCN(CCN2CCC(c3cc4c(cc3F)c(N3CCC(=O)NC3=O)nn4C)C(F)(F)C2)CC1 (stereo not drawn)",
    "Cmax / ng/mL": 649
  }
]

For every listed record, write down its Cmax.
1. CCc1cc(Nc2ncc(Cl)c(Nc3ccccc3C(=O)NC)n2)c(OC)cc1N1CCN(C(=O)CN2CCC(c3cc4c(cc3F)c(N3CCC(=O)NC3=O)nn4C)C(F)(F)C2)CC1 (stereo not drawn)
2. CCc1cc(Nc2ncc(Br)c(Nc3ccccc3P3(=O)CCCC3)n2)c(OC)cc1N1CC2(CCN(C(=O)CN3CCC(c4cc5c(cc4F)c(N4CCC(=O)NC4=O)nn5C)C(F)(F)C3)CC2(F)F)C1 (stereo not drawn)

1. 441
2. 482

Answer for every listed entry: what is its Cmax? The entries follow.
1. CCc1cc(Nc2ncc(Cl)c(Nc3ccccc3P(C)(C)=O)n2)c(OC)cc1N1CCN(C(=O)CN2CCC(c3cc4c(cc3F)c(N3CCC(=O)NC3=O)nn4C)CC2)CC1
2. CCc1cc(Nc2ncc(Br)c(Nc3ccccc3P(C)(C)=O)n2)c(OC)cc1N1CCN(C(=O)CN2CCC(c3cc4c(cc3F)c(N3CCC(=O)NC3=O)nn4C)C(F)(F)C2)CC1 (stereo not drawn)
3. CCc1cc(Nc2ncc(Cl)c(Nc3ccccc3P(C)(C)=O)n2)c(OC)cc1N1CC2(CCN(C(=O)CN3CCC(c4cc5c(cc4F)c(N4CCC(=O)NC4=O)nn5C)CC3)CC2)C1

[742, 533, 665]
